measuredTarget: nucleoside transport protein (Homo sapiens, UniProt Q99808)
Sequence (Q99808 1-456): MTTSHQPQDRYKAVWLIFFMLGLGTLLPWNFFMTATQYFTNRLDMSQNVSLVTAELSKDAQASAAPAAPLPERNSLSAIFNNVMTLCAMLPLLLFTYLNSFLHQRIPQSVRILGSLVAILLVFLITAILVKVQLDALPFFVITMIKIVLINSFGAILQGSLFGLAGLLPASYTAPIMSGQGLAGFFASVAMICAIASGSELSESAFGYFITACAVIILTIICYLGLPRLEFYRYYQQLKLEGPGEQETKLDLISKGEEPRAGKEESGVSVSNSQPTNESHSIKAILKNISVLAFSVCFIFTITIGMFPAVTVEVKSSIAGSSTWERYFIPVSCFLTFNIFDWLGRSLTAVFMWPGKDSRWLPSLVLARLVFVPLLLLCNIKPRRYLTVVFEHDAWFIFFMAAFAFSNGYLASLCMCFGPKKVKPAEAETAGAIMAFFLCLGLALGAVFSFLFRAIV
Structures can show the parent of a compound that is named as a salt.
reportedEndpoint: Ki (nM)

INSERT INTO results (compound, scaleunit, testvalue) VALUES
  ('COc1ccc(C2CC(c3ccccn3)Nc3c(Br)c(-c4ccccc4)nn32)cc1OC (centres unmarked) [Example 145, dihydrochloride]', 'nM', 400),
  ('COc1ccc(C2CC(c3ccc([N+](=O)[O-])s3)Nc3c(N=Nc4ccccc4)c(O)nn32)cc1OC (centres unmarked) [Example 53]', 'nM', 600);

###

% Displacement at 10 μM values by entry
measuredTarget: nucleoside transport protein (Homo sapiens)
Construct: 100 μl of an aqueous suspension of erythrocyte membrane; from tissue; host or cells: erythrocyte membrane
assayText: inhibition of the nucleoside transport protein ([3H]NBl displacement, erythrocyte membrane)
Assay type: binding
conditions: 10 μM compound, 1.5 nM [3H]NBl
reportedEndpoint: % Displacement at 10 μM (%)

INSERT INTO results (compound, testvalue) VALUES
  ('COc1ccc(C2CC(c3ccc([N+](=O)[O-])s3)Nc3c(C#N)cnn32)cc1OC (stereo not shown)', 43),
  ('CCOC(=O)c1cnn2c1NC(c1ccccn1)CC2c1ccc(OC)c(OC)c1 (stereo not shown)', 41),
  ('COc1ccc(C2CC(c3ccc([N+](=O)[O-])o3)Nc3c(Br)c(-c4ccccc4)nn32)cc1OC (stereo not shown)', 40),
  ('COc1ccc(C2CC(c3ccc([N+](=O)[O-])o3)Nc3c(C#N)c(SC)nn32)cc1OC (stereo not shown)', 50);

###

% Inhibition of the specific binding of the ligand (3H)-(+)-MK801 values by entry
System: (+)-MK801 binding site of the ionotropic NMDA receptor
assayText: (3H)-(+)-MK801 receptor binding test on rat brain membrane homogenate
conditions: 10 μmole/l compound, 1 nmole/l (3H)-(+)-MK801, mean values of double determinations
reportedEndpoint: % Inhibition of the specific binding of the ligand (3H)-(+)-MK801 (%)

INSERT INTO results (molecule, scaleunit, testvalue) VALUES
  ('CCOC(=O)C1C=NN2C1=NC(c1ccccn1)CC2Sc1ccccc1 (centres unmarked) [Example 141]', '%', 45),
  ('OC1=NN2C(=NC(c3ccccn3)CC2Sc2ccccc2)C1N=Nc1ccccc1 (centres unmarked) [Example 142]', '%', 75),
  ('BrC1C=NN2C1=NC(c1ccccn1)CC2Sc1ccccc1 (centres unmarked) [Example 143]', '%', 49),
  ('OC1=NN2C(=NC(c3ccccn3)CC2c2ccccc2)C1N=Nc1ccccc1 (centres unmarked) [Example 140]', '%', 44),
  ('N#CC1C=NN2C1=NC(c1ccccn1)CC2Sc1ccccc1 (centres unmarked) [Example 144]', '%', 45);

Entry source: patent US7135568B2
